test system: L1210 leukemia ip in BDF1 mice, survival T/C; experiment: NCI In Vivo Anticancer Drug Screen. Data for tumor model L1210 Leukemia (intraperitoneal) in B6D2F1 (BDF1) mice; conditions: endpoint: mean survival time; dose: 50.0 mg/kg/injection; schedule: Q01DX009 (ip); vehicle: saline with Tween-80; higher = longer survival
Toxic doses and inconclusive results are not listed.
List of T/C values.

Query smiles	T/C
Cc1ccc(NS(=O)(=O)c2ccc(Br)cc2)c(C)c1	96 % of control
COC(=O)CCC1([N+](=O)[O-])CCCCC1	100 % of control
Cc1cc(C(=O)O)ccc1S(=O)(=O)F	102 % of control
COC(=O)N/N=C/C=C/c1ccccc1	105 % of control
O=[N+]([O-])c1cc(C(F)(F)F)cc([N+](=O)[O-])c1N/N=C/c1ccc(F)cc1	94 % of control
O=C(O)CCCCc1ccc(CCCCC(=O)O)cc1	96 % of control
CN(C)CCCNC(=S)Nc1ccc(Cl)cc1	108 % of control
O=c1oc(-c2ccc(Cl)cc2)nc2cc(Cl)ccc12	97 % of control
Cc1c2ccncc2c(C)c2c1[nH]c1ccc(Cl)cc12	96 % of control
COc1cc2nn(-c3ccccc3N)nc2cc1OC	98 % of control
O=[N+]([O-])c1ccc2c(c1)c(-c1cc(Cl)cc(Cl)c1)nc1ccccc12	104 % of control
CC(=O)CCSC(C)C	89 % of control
